- target: T1, Extracellular domain of human PD1 (huPD1-ECD) (human, UniProt Q15116 25-169, biotinylated in the ligand inhibition assay (sites not given))
- T1 construct: Expressed with a hexahistidine tag or as Fc fusion; also called biotinylated PD-1
- T1 sequence (Q15116 25-169 limits assumed): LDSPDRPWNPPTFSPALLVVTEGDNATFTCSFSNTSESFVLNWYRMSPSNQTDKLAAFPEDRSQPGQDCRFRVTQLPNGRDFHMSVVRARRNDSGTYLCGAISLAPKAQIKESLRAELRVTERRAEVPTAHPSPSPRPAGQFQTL
- methodNotes: SPR ProteOn, captured mAb, huPD1-ECD analyte;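 further: SPR on ProteOn XPR36, antibodies captured by anti-IgG Fc on a GLC chip, data fitted with a Langmuir 1:1 model to give on-rate, off-rate and equilibrium KD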
observationType: koff

binder	measuredValue
PD1B11 (antibody, V domains shown, Tested as IgG2sigma/kappa; also called PD1H3/PH9L3) VH: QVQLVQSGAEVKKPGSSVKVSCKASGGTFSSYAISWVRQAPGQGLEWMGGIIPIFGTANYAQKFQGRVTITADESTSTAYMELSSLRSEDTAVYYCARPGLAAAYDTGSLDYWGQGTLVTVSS VL: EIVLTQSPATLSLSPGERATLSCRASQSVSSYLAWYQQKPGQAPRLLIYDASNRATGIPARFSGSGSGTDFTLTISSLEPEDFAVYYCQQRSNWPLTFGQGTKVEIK	0.00905 s⁻¹
PD1B198 (antibody, V domains shown, also called PD1H163/PD1L187) VH: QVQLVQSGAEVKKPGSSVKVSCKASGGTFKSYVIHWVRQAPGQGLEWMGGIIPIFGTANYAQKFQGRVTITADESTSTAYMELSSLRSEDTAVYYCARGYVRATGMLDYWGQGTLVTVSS VL: EIVLTQSPATLSLSPGERATLSCRASQSVSSYLAWYQQKPGQAPRLLIEDASSRATGIPARFSGSGSGTDFTLTISSLEPEDFAVYYCQQRAEWPLTFGQGTKVEIK	0.00934 s⁻¹
PD1B71 (antibody, V domains shown, Tested as IgG2sigma/kappa; also called PD1H108/PH9L3) VH: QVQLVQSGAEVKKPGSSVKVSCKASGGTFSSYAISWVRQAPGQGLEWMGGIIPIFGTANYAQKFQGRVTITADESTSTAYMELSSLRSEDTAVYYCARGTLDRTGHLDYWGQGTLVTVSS VL: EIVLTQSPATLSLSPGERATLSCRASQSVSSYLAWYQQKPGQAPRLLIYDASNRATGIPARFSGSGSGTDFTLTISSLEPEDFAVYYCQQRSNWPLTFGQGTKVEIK	0.0225 s⁻¹
PD1B199 (antibody, V domains shown, also called PD1H164/PD1L86) VH: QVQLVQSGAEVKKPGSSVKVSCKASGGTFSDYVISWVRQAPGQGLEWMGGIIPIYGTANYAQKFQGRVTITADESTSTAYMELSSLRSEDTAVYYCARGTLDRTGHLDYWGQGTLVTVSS VL: EIVLTQSPATLSLSPGERATLSCRASQSVSSYLAWYQQKPGQAPRLLIHDASTRATGIPARFSGSGSGTDFTLTISSLEPEDFAVYYCQQRNYWPLTFGQGTKVEIK	0.000564 s⁻¹
PD1B70 (antibody, V domains shown, Tested as IgG2sigma/kappa; also called PD1H107/PH9L3) VH: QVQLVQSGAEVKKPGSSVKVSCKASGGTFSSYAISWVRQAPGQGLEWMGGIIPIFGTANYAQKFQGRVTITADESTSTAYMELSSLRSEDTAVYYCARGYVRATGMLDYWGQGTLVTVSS VL: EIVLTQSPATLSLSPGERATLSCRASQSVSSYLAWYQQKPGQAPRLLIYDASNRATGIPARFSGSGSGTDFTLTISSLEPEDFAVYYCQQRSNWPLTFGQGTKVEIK	0.0349 s⁻¹
PD1B195 (antibody, V domains shown, also called PD1H170/PD1L67) VH: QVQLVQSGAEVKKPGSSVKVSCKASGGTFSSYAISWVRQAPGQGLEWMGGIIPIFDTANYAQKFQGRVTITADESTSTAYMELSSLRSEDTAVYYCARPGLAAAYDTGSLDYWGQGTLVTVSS VL: EIVLTQSPATLSLSPGERATLSCRASQSVDSYLAWYQQKPGQAPRLLIYDASNRATGIPARFSGSGSGTDFTLTISSLEPEDFAVYYCQQREYWPLTFGQGTKVEIK	0.00152 s⁻¹

Origin of measurements: patent US20210277110A1
